system: A498 renal; assay: NCI-60 one-dose screen, 48 h (100 = growth as untreated, 0 = no growth, -100 = all killed); conditions: 10 µM unless noted
The panel holds about 83,000 compounds, 20% with a hit somewhere; the sample as a whole holds those more often.
growth for assorted molecules
Metric name: growth (%)

* COC(=O)/C(=C\c1c(-c2ccccc2)[nH]c2ccccc12)S(C)(=O)=O | 29
* O=C1Nc2ccccc2/C1=C/c1ccc[nH]1 | 88.5
* COc1cccc(C(=O)Cn2cc(/C=C(\C#N)S(=O)(=O)c3ccccc3)c3ccccc32)c1 | -75.9
* O=S(=O)(c1ccc(NC(=S)NC23CC4CC(CC(C4)C2)C3)cc1)N1CCCCC1 | 78.8
* CN1CCN(Cc2ccc(C(=O)Nc3cncc(C#Cc4cnc(N)c5ccccc45)c3)cc2C(F)(F)F)CC1 | -62.9
* O=C(Nc1ccc(N2CCNCC2)cc1)c1[nH]ncc1Nc1cc(C2CC2)ncn1 | 51.1
* COc1cccc(-c2nn(C)c3sc(C(=O)NCCN4CCN(c5ccccc5F)CC4)cc23)c1 | 39
* O=NN(Cc1cccnc1)C(=O)NC1CCCCC1 | 103
* COc1cc(C=C2C(=O)N(C)C(=O)N(C)C2=O)cc(CN2CCCCC2)c1O | 98.7
* O=C(c1ccccc1)N(CCc1ccc(Cl)cc1)C(=S)N(C(=O)c1ccccc1)c1ccccc1 | 92.3

The reported measurements were obtained from PubChem BioAssay (NCI).
